- assay_target: 6His-OxyR-Like (Magnetospirillum gryphiswaldense MSR-1) (UniProt V6F1S1)
- Sequence: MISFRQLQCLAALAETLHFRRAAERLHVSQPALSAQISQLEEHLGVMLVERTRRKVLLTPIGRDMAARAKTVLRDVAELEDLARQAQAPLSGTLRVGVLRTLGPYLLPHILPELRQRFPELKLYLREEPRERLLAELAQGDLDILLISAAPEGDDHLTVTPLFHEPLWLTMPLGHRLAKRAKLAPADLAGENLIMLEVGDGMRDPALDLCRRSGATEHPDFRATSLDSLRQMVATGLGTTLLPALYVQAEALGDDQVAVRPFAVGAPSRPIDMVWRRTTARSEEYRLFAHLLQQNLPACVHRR
- assay_protocol: EMSA
- particulars: EMSA: DIG Gel Shift Kit 2nd Gen (Roche) binding buffer with 1 uL poly[d(I-C)], 20 uL, 25 C 30 min, 5% native PAGE in 0.5x TBE; footprinting: 1000 ng labeled …
property_measured: binding

These solved cases illustrate the format of a correct answer.
INSERT INTO results (chain, observed_result) VALUES
  ('GGGCGAAGAATGGACATCGTCGTCTCCATTAGGCTGTTGTCCGTGATTGAGACTATGCCCCCTTCTTTGTGATAATTCTAATCGATATATCTTGAGATATTGATAGTAAATTGTTATCAGTGATCCATGATCAGCTTTCGCCAATTACAATGCCT (double strand) [oxyR-Like promoter EMSA probe]', 'binds'),
  ('CGGCACTTGTTCCATGAACTTCGACCATATCGCTCTCCCATTCAACCAATTGTTAGCCTTGGGCTTGGCGATATTCTAACCGTTCCTCCATTCAACTCATACAGATGTGGTTTAGAAGCTTTTTAATAAATACTTGAGGGTCCGGAAATCATTAGCCGAACCCTCAATAGCCTCAGCTATGCAGGCCGGGGGCTTCATGTCCGGTGCGGGCCACGTATTCGGTGTAGCCGC (double strand) [katG promoter EMSA probe]', 'no binding'),
  ('TGGGCTGTTGCTTGTCTTATCTTTTTTCATTTCCGCCTCACAGGCTGAATTATCTGAAAAGGAAATAGATGAGGATCAGGACTGGGATGGGAACGCCAACCAGCCAGAGAAGGCCGTATTTCATTTCCTACCTCGCTGTTCTGCCGGTGTGTCATGGGGCAATGGAGCCGTCCTGATACAAGA (double strand) [katE promoter EMSA probe]', 'no binding'),
  ('CTTGATCCCGATAATCTGCTGATCGTGGTGGTCGGCAAGCCGGAAGGGGTCAACGGCACGCCCTAACCCGAAAAGACGGCGGCGGCAAAAATCAACGCCGCCCAGTGATCCGTTTCTCCCGTGACACCGTAGAAGGGTCATAAGGAGAAACGCGATGCCTCGGATCATCAAGATTGTTGCCGGCGCTTTGGCCACCTGTCTGGCGGCGACGGCCCCGGCCAAGGCCAGTGGTGCTGTCTTGGACT (double strand) [bsaA promoter EMSA probe]', 'no binding');

Read the next record carefully.
Form field - read-out: binding; system: 6His-OxyR-Like (Magnetospirillum gryphiswaldense MSR-1) (UniProt V6F1S1); submitted item: CAGGGCAGGATGATGTGAGTGCGTAGACAGATAGGTAAACCAACCTTCCCTTTTAGGCAAGGCGTTTCGCCGTCAAAAATGCTTATATTGCAATGCAATAATGGCAATTAACTGGATAATAGTTATTTATCAAAACCTAACCAGATGGGCGGGCAACGGGTGGTGCGATGCAGCAATCCTTTTGCCTCATCGGGTTAGCGCCTGACAGGGATATTGGGAGCGGGCAAACACTTGAAAACCCACCCGGCGGACAAAATCGCGCCAACCGGTCCATTTCACAATGCACCCATTCAGAGCAAA (double strand) [pdh promoter EMSA probe]
binds
